Values compiled from patent US20220073621A1.

- SYSTEM_UNDER_TEST: T1, hPD-L1-His (human, UniProt Q9NZQ7 19-238)
- T1 construct: Bought protein; also called hPD-L1-His (manufactured by Edison); not shown: His tag
- ASSAY: SPR (Biacore T200), antibody on Protein A chip, hPD-L1-His injected, 1:1 fit
OBSERVABLE: Kd (nM)
Kindly answer with a numeric value in nM, unit omitted.

INSERT INTO measurements (binder, observable, measured_value) VALUES
  ('7E4-H2K3-IgG1 (antibody, V domains shown) VH: QVQLVQSGAEVKKPGASVKVSCKASGFKFTDYAIHWVRQAPGKSLEWMGVISIYYGEASYNQKFKDRVTLTVDTSASTAYMELSSLRSEDTAVYYCAREDYYGSSSYFDYWGQGTLVTVSS VL: ENVLTQSPSFLSASVGDRVTMTCSASSSVSSSYLHWYQQKSGASPKPLIHRTSNLASGVPSRFSGSGSGTEYTLTISSVQPEDFATYYCQQWSGYPYTFGGGTKLEIK', 'Kd', 12.7);

Now consider a different binder.
Q: Which measured Kd value corresponds to 7E4-H3K1-IgG1 (antibody, V domains shown) VH: QVQLVQSGAEVVKPGASVKISCKGSGFKFTDYAIHWVRQAPGKSLEWMGVISIYYGEASYNQKFKDKVTLTVDTSASTAYMELSSLRSEDTAIYYCAREDYYGSSSYFDYWGQGTLLTVSS VL: DNQLTQSPSFLSASVGDRVTITCSASSSVSSSYLHWYQQKPGAAPKPLIHRTSNLASGVPSRFSGSGSGTEFTLTISSLQPEDFATYYCQQWSGYPYTFGGGTKLEIK ?
Result: 23.9
